Taken from patent US9556183B2.

# key: entry, value: melting point

| compound | melting point |
| --- | --- |
| N#Cc1cnn(-c2nn3c(c2Cl)CCCC3)c1N(CC1CC1)C(=O)C(F)(F)F | 87.3 to 101 °C |
| N#Cc1cnn(-c2nn3c(c2Cl)CCCC3)c1NCC1CC1 | 165 to 166 °C |
| N#Cc1cnn(-c2nn3c(c2Cl)CCCC3)c1NC(C1CC1)C1CC1 | 132 to 133 °C |
| CC(Nc1c(C#N)cnn1-c1nn2c(c1Cl)CCCC2)C1CC1 (stereo not shown) | 104 to 108 °C |

* * *

# Tested on: Monochoria vaginalis
# assay summary: Paddy herbicidal activity test
# Format: in vivo
# condition info: 1g a.i./10a; irrigated paddy pot; 30 days
measurement name: herbicidal efficacy (growth inhibition rate level) Monochoria vaginalis

| molecule | recorded result |
| --- | --- |
| N#Cc1cnn(-c2nn3c(c2Cl)CCCC3)c1N(CC1CC1)C(=O)C(F)(F)F | 8 (8: 80% to less than 90%) |
| CC1CC1CNc1c(C#N)cnn1-c1nn2c(c1Cl)CCCC2 (centres unmarked) | 8 (8: 80% to less than 90%) |
| CC(C1CC1)N(C(=O)C(F)(F)F)c1c(C#N)cnn1-c1nn2c(c1Cl)CCCC2 (centres unmarked) | 7 (7: 70% to less than 80%) |
| N#Cc1cnn(-c2nn3c(c2Cl)CCC3)c1NCC1CC1 | 9 (9: 90% to less than 100%) |
| O=[N+]([O-])c1cnn(-c2nn3c(c2Br)CCCC3)c1NCC1CC1 | 7 (7: 70% to less than 80%) |
